Documented DC50 across a set of molecules
- tgt: IKZF1 (Homo sapiens, UniProt Q13422+Q96SW2)
- Sequence (Q13422 whole entry): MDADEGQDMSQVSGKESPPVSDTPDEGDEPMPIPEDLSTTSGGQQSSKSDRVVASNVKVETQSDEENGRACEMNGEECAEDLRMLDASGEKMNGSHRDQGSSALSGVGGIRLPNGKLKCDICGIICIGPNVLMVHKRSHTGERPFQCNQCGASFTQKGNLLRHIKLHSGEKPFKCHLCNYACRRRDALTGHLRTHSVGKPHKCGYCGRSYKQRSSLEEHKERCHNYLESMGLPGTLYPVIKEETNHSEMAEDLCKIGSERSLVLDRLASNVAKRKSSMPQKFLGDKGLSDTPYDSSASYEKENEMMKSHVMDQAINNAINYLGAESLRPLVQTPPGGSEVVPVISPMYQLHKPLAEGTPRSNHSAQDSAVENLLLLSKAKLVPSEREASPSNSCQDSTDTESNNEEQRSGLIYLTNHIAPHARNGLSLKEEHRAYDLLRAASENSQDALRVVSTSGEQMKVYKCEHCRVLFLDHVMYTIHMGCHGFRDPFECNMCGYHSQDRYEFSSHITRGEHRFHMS
- Sequence (Q96SW2 whole entry): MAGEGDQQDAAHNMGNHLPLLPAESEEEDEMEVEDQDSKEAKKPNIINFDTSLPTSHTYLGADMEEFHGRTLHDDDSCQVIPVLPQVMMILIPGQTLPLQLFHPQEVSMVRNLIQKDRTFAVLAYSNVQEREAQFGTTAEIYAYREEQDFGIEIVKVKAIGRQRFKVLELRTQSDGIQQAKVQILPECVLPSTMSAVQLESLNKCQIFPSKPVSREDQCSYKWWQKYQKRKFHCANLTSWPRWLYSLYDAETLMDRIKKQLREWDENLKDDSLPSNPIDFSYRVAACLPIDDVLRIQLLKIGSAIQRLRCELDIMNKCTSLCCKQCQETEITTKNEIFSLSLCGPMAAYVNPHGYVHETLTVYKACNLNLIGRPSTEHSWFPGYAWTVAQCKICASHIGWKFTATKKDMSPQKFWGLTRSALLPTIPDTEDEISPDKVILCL
- Sequence (Q16531 whole entry partner): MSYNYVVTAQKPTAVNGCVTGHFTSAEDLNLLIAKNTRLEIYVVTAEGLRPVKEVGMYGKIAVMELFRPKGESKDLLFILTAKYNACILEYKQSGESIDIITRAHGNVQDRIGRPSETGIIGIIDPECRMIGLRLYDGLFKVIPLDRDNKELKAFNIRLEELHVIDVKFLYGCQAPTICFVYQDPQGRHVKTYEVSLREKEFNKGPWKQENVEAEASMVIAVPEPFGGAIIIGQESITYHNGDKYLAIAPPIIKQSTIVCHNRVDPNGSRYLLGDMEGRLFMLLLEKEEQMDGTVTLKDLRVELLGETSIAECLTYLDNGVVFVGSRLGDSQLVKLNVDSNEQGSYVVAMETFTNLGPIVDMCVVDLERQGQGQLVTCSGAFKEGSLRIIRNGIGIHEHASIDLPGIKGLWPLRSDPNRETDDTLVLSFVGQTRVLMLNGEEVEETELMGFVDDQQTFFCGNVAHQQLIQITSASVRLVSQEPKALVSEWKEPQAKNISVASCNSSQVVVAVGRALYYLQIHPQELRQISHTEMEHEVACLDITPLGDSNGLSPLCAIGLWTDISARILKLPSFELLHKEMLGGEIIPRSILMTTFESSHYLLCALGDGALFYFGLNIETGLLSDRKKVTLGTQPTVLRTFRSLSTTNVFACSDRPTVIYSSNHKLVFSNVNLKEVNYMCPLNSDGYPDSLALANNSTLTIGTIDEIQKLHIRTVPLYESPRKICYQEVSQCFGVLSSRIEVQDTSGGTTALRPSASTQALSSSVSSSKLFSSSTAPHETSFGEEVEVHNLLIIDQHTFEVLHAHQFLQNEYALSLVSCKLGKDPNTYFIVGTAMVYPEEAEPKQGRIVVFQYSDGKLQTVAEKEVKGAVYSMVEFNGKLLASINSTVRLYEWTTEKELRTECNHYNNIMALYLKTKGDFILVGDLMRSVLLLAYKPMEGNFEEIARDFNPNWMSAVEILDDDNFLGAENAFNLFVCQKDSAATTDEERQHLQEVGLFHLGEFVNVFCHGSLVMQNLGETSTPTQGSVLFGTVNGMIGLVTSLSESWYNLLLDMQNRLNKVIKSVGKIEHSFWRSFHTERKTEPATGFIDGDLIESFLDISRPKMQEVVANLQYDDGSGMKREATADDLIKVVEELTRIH
- protocol_details: Prolabel quantification of IKZF1 protein levels in 293GT cells
- Assay type: cell-based
- assay_conditions: Prolabel assay, read-out: IKZF1 EC50
quantity_measured: DC50

[
  {
    "molecule": "O=C1CCC(N2Cc3cc(C4CCN(Cc5ccc(OC(F)F)cc5)CC4)ccc3C2=O)C(=O)N1 (stereo not shown)",
    "value_reported": "> 30 µM"
  },
  {
    "molecule": "O=C1CCC(N2Cc3cc(C4CCN(Cc5ccc(-n6cccn6)cc5)CC4)ccc3C2=O)C(=O)N1 (stereo not shown)",
    "value_reported": "> 30 µM"
  },
  {
    "molecule": "Cc1ccccc1CN1CCC(c2ccc3c(c2)CN(C2CCC(=O)NC2=O)C3=O)CC1 (stereo not shown)",
    "value_reported": "> 50 µM"
  },
  {
    "molecule": "Nc1nc(C(F)(F)F)c(CN2CCC(c3ccc4c(c3)CN(C3CCC(=O)NC3=O)C4=O)CC2)s1 (stereo not shown)",
    "value_reported": "> 30 µM"
  }
]

---

Measured DC50, listed per entry for reference.
- tgt: IKZF1 (Homo sapiens, UniProt Q13422+Q96SW2)
- protocol_details: Prolabel quantification of IKZF1 protein levels in 293GT cells
- Assay type: cell-based
- assay_conditions: Prolabel assay, read-out: IKZF1 EC50
quantity_measured: DC50

[
  {
    "compound": "CC1CN(Cc2ccccc2)CCC1c1ccc2c(c1)CN(C1CCC(=O)NC1=O)C2=O (stereo not shown)",
    "tgt": "IKZF1 (Homo sapiens, UniProt Q13422+Q96SW2)",
    "value_reported": "> 30 µM"
  },
  {
    "compound": "O=C1CCC(N2Cc3cc(C4CCN(Cc5cccc6c5OCCO6)CC4)ccc3C2=O)C(=O)N1 (stereo not shown)",
    "tgt": "IKZF1 (Homo sapiens, UniProt Q13422+Q96SW2)",
    "value_reported": "> 30 µM"
  },
  {
    "compound": "O=C1CCC(N2Cc3cc(C4=CCN(Cc5ccccc5)CC4)ccc3C2=O)C(=O)N1 (stereo not shown)",
    "tgt": "IKZF1 (Homo sapiens, UniProt Q13422+Q96SW2)",
    "value_reported": "0.25 µM"
  },
  {
    "compound": "O=C1CCC(N2Cc3cc(C4CCN(Cc5ccccc5Cl)CC4)ccc3C2=O)C(=O)N1 (stereo not shown)",
    "tgt": "IKZF1 (Homo sapiens, UniProt Q13422+Q96SW2)",
    "value_reported": "> 30 µM"
  },
  {
    "compound": "O=C1CCC(N2Cc3cc(C4CCN(Cc5ccccn5)CC4)ccc3C2=O)C(=O)N1 (stereo not shown)",
    "tgt": "IKZF1 (Homo sapiens, UniProt Q13422+Q96SW2)",
    "value_reported": "> 30 µM"
  },
  {
    "compound": "O=C1CCC(N2Cc3cc(C4CCN(Cc5cscn5)CC4)ccc3C2=O)C(=O)N1 (stereo not shown)",
    "tgt": "IKZF1 (Homo sapiens, UniProt Q13422+Q96SW2)",
    "value_reported": "> 25 µM"
  },
  {
    "compound": "O=C1CCC(N2Cc3cc(C4CCN(Cc5c(F)cccc5F)CC4)ccc3C2=O)C(=O)N1 (stereo not shown)",
    "tgt": "IKZF1 (Homo sapiens, UniProt Q13422+Q96SW2)",
    "value_reported": "> 30 µM"
  },
  {
    "compound": "O=C1CCC(N2Cc3cc(C4CCN(Cc5nccc6ccccc56)CC4)ccc3C2=O)C(=O)N1 (stereo not shown)",
    "tgt": "IKZF1 (Homo sapiens, UniProt Q13422+Q96SW2)",
    "value_reported": "> 25 µM"
  },
  {
    "compound": "O=C1CCC(N2Cc3cc(C4CCN(CC5CCCc6ccccc65)CC4)ccc3C2=O)C(=O)N1 (stereo not shown)",
    "tgt": "IKZF1 (Homo sapiens, UniProt Q13422+Q96SW2)",
    "value_reported": "> 50 µM"
  },
  {
    "compound": "CC(C)(C)c1ccc(C(=O)N2CCC(c3ccc4c(c3)CN(C3CCC(=O)NC3=O)C4=O)CC2)cc1 (stereo not shown)",
    "tgt": "IKZF1 (Homo sapiens, UniProt Q13422+Q96SW2)",
    "value_reported": "> 30 µM"
  },
  {
    "compound": "O=C1CCC(N2Cc3cc(C4CCN(Cc5ccc6c(c5)OCCCO6)CC4)ccc3C2=O)C(=O)N1 (stereo not shown)",
    "tgt": "IKZF1 (Homo sapiens, UniProt Q13422+Q96SW2)",
    "value_reported": "> 30 µM"
  },
  {
    "compound": "O=C1CCC(N2Cc3cc(C4C[C@H]5CC[C@@H](C4)N5Cc4ccccc4)ccc3C2=O)C(=O)N1 (stereo partly shown)",
    "tgt": "IKZF1 (Homo sapiens, UniProt Q13422+Q96SW2)",
    "value_reported": "> 50 µM"
  },
  {
    "compound": "O=C1CCC(N2Cc3cc(C4CCN(C(c5ccccc5)C(F)F)CC4)ccc3C2=O)C(=O)N1 (stereo not shown)",
    "tgt": "IKZF1 (Homo sapiens, UniProt Q13422+Q96SW2)",
    "value_reported": "> 30 µM"
  },
  {
    "compound": "O=C1CCC(N2Cc3cc(C4CCN(Cc5ccc(C(=O)O)cc5)CC4)ccc3C2=O)C(=O)N1 (stereo not shown)",
    "tgt": "IKZF1 (Homo sapiens, UniProt Q13422+Q96SW2)",
    "value_reported": "> 30 µM"
  },
  {
    "compound": "O=C1CCC(N2Cc3cc(C4CCN(Cc5ccc6c(c5)CCCC6)CC4)ccc3C2=O)C(=O)N1 (stereo not shown)",
    "tgt": "IKZF1 (Homo sapiens, UniProt Q13422+Q96SW2)",
    "value_reported": "> 50 µM"
  },
  {
    "compound": "O=C1CCC(N2Cc3cc(C4CCN(Cc5cc(C(F)(F)F)cc(C(F)(F)F)c5)CC4)ccc3C2=O)C(=O)N1 (stereo not shown)",
    "tgt": "IKZF1 (Homo sapiens, UniProt Q13422+Q96SW2)",
    "value_reported": "> 30 µM"
  },
  {
    "compound": "O=C1CCC(N2Cc3cc(C4CCN(Cc5cc[nH]c5)CC4)ccc3C2=O)C(=O)N1 (stereo not shown)",
    "tgt": "IKZF1 (Homo sapiens, UniProt Q13422+Q96SW2)",
    "value_reported": "> 30 µM"
  },
  {
    "compound": "CN(C)S(=O)(=O)c1ccc(CN2CCC(c3ccc4c(c3)CN(C3CCC(=O)NC3=O)C4=O)CC2)cc1 (stereo not shown)",
    "tgt": "IKZF1 (Homo sapiens, UniProt Q13422+Q96SW2)",
    "value_reported": "> 30 µM"
  },
  {
    "compound": "Cc1ccc(CN2CCC(c3ccc4c(c3)CN(C3CCC(=O)NC3=O)C4=O)CC2)cc1F (stereo not shown)",
    "tgt": "IKZF1 (Homo sapiens, UniProt Q13422+Q96SW2)",
    "value_reported": "> 30 µM"
  },
  {
    "compound": "Nc1ccc(CN2CCC(c3ccc4c(c3)CN(C3CCC(=O)NC3=O)C4=O)CC2)cn1 (stereo not shown)",
    "tgt": "IKZF1 (Homo sapiens, UniProt Q13422+Q96SW2)",
    "value_reported": "> 30 µM"
  },
  {
    "compound": "CC1(C)CN(Cc2ccccc2)CCC1c1ccc2c(c1)CN(C1CCC(=O)NC1=O)C2=O (stereo not shown)",
    "tgt": "IKZF1 (Homo sapiens, UniProt Q13422+Q96SW2)",
    "value_reported": "> 30 µM"
  },
  {
    "compound": "O=C1CCC(N2Cc3cc(C4CCN(Cc5cn[nH]c5)CC4)ccc3C2=O)C(=O)N1 (stereo not shown)",
    "tgt": "IKZF1 (Homo sapiens, UniProt Q13422+Q96SW2)",
    "value_reported": "> 30 µM"
  },
  {
    "compound": "O=C1CCC(N2Cc3cc(C4CCN(Cc5cnc(Cl)s5)CC4)ccc3C2=O)C(=O)N1 (stereo not shown)",
    "tgt": "IKZF1 (Homo sapiens, UniProt Q13422+Q96SW2)",
    "value_reported": "> 30 µM"
  },
  {
    "compound": "CCN1CCC(c2ccc3c(c2)CN(C2CCC(=O)NC2=O)C3=O)CC1 (stereo not shown)",
    "tgt": "IKZF1 (Homo sapiens, UniProt Q13422+Q96SW2)",
    "value_reported": "> 30 µM"
  },
  {
    "compound": "N#Cc1ccc(CN2CCC(c3ccc4c(c3)CN(C3CCC(=O)NC3=O)C4=O)CC2)cc1 (stereo not shown)",
    "tgt": "IKZF1 (Homo sapiens, UniProt Q13422+Q96SW2)",
    "value_reported": "> 50 µM"
  },
  {
    "compound": "CC(C)(C)c1nc(CN2CCC(c3ccc4c(c3)CN(C3CCC(=O)NC3=O)C4=O)CC2)cs1 (stereo not shown)",
    "tgt": "IKZF1 (Homo sapiens, UniProt Q13422+Q96SW2)",
    "value_reported": "> 30 µM"
  },
  {
    "compound": "O=C1CCC(N2Cc3cc(C4CCN(Cc5ccc(F)cc5F)CC4)ccc3C2=O)C(=O)N1 (stereo not shown)",
    "tgt": "IKZF1 (Homo sapiens, UniProt Q13422+Q96SW2)",
    "value_reported": "> 30 µM"
  },
  {
    "compound": "O=C1CCC(N2Cc3cc(C4CCN(Cc5ccc6nccnc6c5)CC4)ccc3C2=O)C(=O)N1 (stereo not shown)",
    "tgt": "IKZF1 (Homo sapiens, UniProt Q13422+Q96SW2)",
    "value_reported": "> 30 µM"
  },
  {
    "compound": "O=C1CCC(N2Cc3cc(C4CCN(Cc5ccnc6ccccc56)CC4)ccc3C2=O)C(=O)N1 (stereo not shown)",
    "tgt": "IKZF1 (Homo sapiens, UniProt Q13422+Q96SW2)",
    "value_reported": "> 50 µM"
  },
  {
    "compound": "O=C1CCC(N2Cc3cc(C4CCN(Cc5cccc(C(=O)O)c5)CC4)ccc3C2=O)C(=O)N1 (stereo not shown)",
    "tgt": "IKZF1 (Homo sapiens, UniProt Q13422+Q96SW2)",
    "value_reported": "> 30 µM"
  },
  {
    "compound": "CC1(C)CC(c2ccc3c(c2)CN(C2CCC(=O)NC2=O)C3=O)CC(C)(C)N1 (stereo not shown)",
    "tgt": "IKZF1 (Homo sapiens, UniProt Q13422+Q96SW2)",
    "value_reported": "> 50 µM"
  }
]
